Tested on: EKVX NSCLC
METHOD NOTES: NCI tumour cell line growth inhibition, 48 h
QUANTITY KIND: TGI

Please review the entries below; each comes with its answer.
INSERT INTO assay_data (molecule, endpoint_result) VALUES
  ('COc1cc(/C=C2\C[C@H]3[C@@H]4CC=C5C[C@@H](O)CC[C@]5(C)[C@H]4CC[C@]3(C)[C@H]2O)cc(OC)c1OC', '> 100 µM'),
  ('COc1cc2cc(C(=O)N3CC(CCl)c4c3cc([N+](=O)[O-])c3ccccc43)[nH]c2c(OC)c1OC (stereo unspecified)', '> 100 µM'),
  ('O=[N+]([O-])c1ccc(Br)c([N+](=O)[O-])c1', '4 µM');

Record for `CN(C)CCNC(=O)c1cc2ccccc2c2nc3ccccc3nc12` under target or system EKVX NSCLC: TGI reported as 7.37 µM

Record for `Cc1cc(C)nc(NS(=O)(=O)c2ccc(Nc3nncc(=O)n3N)cc2)n1` under target or system EKVX NSCLC: TGI reported as 62.7 µM

Record for `O=C(O)C(CP(=O)(O)O)=C(Cl)Cl` under target or system EKVX NSCLC: TGI reported as > 100 µM

Record for COc1ccc(NC(=O)CC(=O)N2N=C(N3CCCCC3)CC2c2ccccc2)cc1 (stereo unspecified) under target or system EKVX NSCLC: TGI reported as > 100 µM

Record for CC(C)=CC1C(COC(=O)c2cc3c(cc2Cl)OCO3)C1(C)C (stereo unspecified) under target or system EKVX NSCLC: TGI reported as > 100 µM

Record for O=S(=O)(O)O.[NH-]C1CCCCC1[NH-].[Pt+2] (stereo unspecified) under target or system EKVX NSCLC: TGI reported as > 100 µM

Record for `O=c1[nH]c(Nc2ccc(F)c(Cl)c2)nc2nc[nH]c12` under target or system EKVX NSCLC: TGI reported as > 100 µM

Record for `CC(C)/C(Cl)=N\OC(=O)Nc1cccc(F)c1` under target or system EKVX NSCLC: TGI reported as 31.8 µM
